- Tested on: Rattus norvegicus
- test-method-notes: Change in systolic arterial blood pressure in renal artery ligated hypertensive rats, orally dosed at 10 mg/kg
- Assay type: functional
- assay-context: route oral
reported-endpoint: Change in blood pressure (mmHg)
Numbers only; they are read as mmHg.

// solved cases for Change in blood pressure follow
> print(dat)
                                  structure         reported.endpoint  units.label  assay.result
1  CCCc1nc(COC)n2nc(O)nc2c1Cc1ccc(-c2ccccc2-c2nn[nH]n2)cc1  Change in blood pressure         mmHg         -88.7
2  CCc1nc(C)n2nc(O)nc2c1Cc1ccc(-c2ccccc2-c2nn[nH]n2)cc1  Change in blood pressure         mmHg         -72.8

Asked: Read off the recorded Change in blood pressure for CCCc1nc(C)n2nc(COC)nc2c1Cc1ccc(-c2ccccc2-c2nn[nH]n2)cc1
Given back: -73.1

Asked: // fetch Change in blood pressure given entry CCCc1nc(CCC)n2nc(O)nc2c1Cc1ccc(-c2ccccc2-c2nn[nH]n2)cc1
Given back: -72.6

Asked: Find the measured Change in blood pressure of CCCc1nc(C)n2nc(C)nc2c1Cc1ccc(-c2ccccc2-c2nn[nH]n2)cc1 and report it.
Given back: -71.8
